B1: CLPTM1 (parent)
chain: MNLHVYISEHEHFTDFNATSALFW

variants of: B1; test: protein stability index of a GFP-peptide fusion (GPS, HEK-293T) (PSI 1-6); higher = more stable; settings: c terminus: a fixed tail appended;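 note: lentivirally expressed fusions sorted by FACS into six bins by GFP to DsRed ratio, PSI derived from sequencing read proportions per bin multiplied by bin number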
Criterion: protein stability index meeting or surpassing 3. Met: satisfied. Not met: not satisfied.

T14K; satisfied

Query :: Test whether the variant S20F records protein stability index of 3 or higher.
Result :: not satisfied

Query :: What do you get for L3K ?
Result :: not satisfied

Query :: What do you get for A21E ?
Result :: not satisfied
